- Assay Overview: Plasma pharmacokinetics of unlabeled erlotinib after 300 mg oral dose (HPLC-UV)
- Assay type: in vivo, human
- Particulars: both sexes, human, plasma, po, 300 mg, oral 300 mg, mean ± SD; read-out: Maximum plasma concentration (C max), mean
Observed Property: Cmax (µM)
Supply the numeric figure in µM, leaving out any unit text.

Entry under review: C#Cc1cccc(Nc2ncnc3cc(OCCOC)c(OCCOC)cc23)c1 [erlotinib] . Reported Cmax?
4.6

Sourced from paper PMC6083370
